A collection of compounds and their measured MIC
- System: Staphylococcus aureus
- experimental_protocol: Antibacterial activity against methicillin-resistant Staphylococcus aureus isolate AKH Vienna A4.018 by broth microdilution method
- Assay type: functional
Expressed in µg/mL, but write only the number.

Study these solved cases before continuing.
1. Cc1sc2nc1C(=O)NCc1nc(cs1)C(=O)N[C@@H](Cc1ccc(O)cc1)C(=O)N1C[C@H](O)[C@H](C)[C@H]1c1nc(cs1)-c1nc(cs1)-c1nc(-c3nc(C(N)=O)cs3)ccc1-c1nc(cs1)C(=O)N[C@H]2CC(N)=O ... 2
2. Cc1sc2nc1C(=O)N[C@@H]([C@H](O)c1ccccc1)c1nc(cs1)C(=O)N[C@@H](Cc1ccc(O)cc1)C(=O)N[C@@H]([C@@H](C)[C@@H]1CO1)c1nc(cs1)-c1nc(cs1)-c1nc(-c3nc(C(N)=O)cs3)ccc1-c1nc(cs1)C(=O)N[C@H]2CC(N)=O ... 0.5
3. Cc1sc2nc1C(=O)N[C@@H]([C@H](O)c1ccccc1)c1nc(cs1)C(=O)N[C@@H](Cc1ccc(O)cc1)C(=O)N[C@@H]([C@@H](C)[C@@H](O)CCl)c1nc(cs1)-c1nc(cs1)-c1nc(-c3nc(C(N)=O)cs3)ccc1-c1nc(cs1)C(=O)N[C@H]2CC(N)=O ... 0.5

Entry `Cc1sc2nc1C(=O)N[C@@H]([C@H](O)c1ccccc1)c1nc(cs1)C(=O)N[C@@H](Cc1ccc(O)cc1)C(=O)N1C[C@H](O)[C@H](C)[C@H]1c1nc(cs1)-c1nc(cs1)-c1nc(-c3nc(C(N)=O)cs3)ccc1-c1nc(cs1)C(=O)N[C@H]2CC(N)=O` needs its MIC filled in; supply it. 0.25

* * *

- System: Staphylococcus aureus
- experimental_protocol: Antibacterial activity against methicillin-resistant Staphylococcus aureus isolate AKH Vienna A4.018 by broth microdilution method
- Type: functional
readout_type: MIC (mg/L)
Expressed in mg/L, but write only the number.

1. Cc1sc2nc1C(=O)N[C@@H]([C@H](O)c1ccccc1)c1nc(cs1)C(=O)N[C@@H](Cc1ccc(O)cc1)C(=O)N[C@@H]([C@@H](C)[C@@H](O)CN)c1nc(cs1)-c1nc(cs1)-c1nc(-c3nc(C(N)=O)cs3)ccc1-c1nc(cs1)C(=O)N[C@H]2CC(N)=O ... 2

Attention now shifts to the item below.
Entry `C=C(NC(=O)C(=C)NC(=O)c1csc(-c2ccc3c(n2)-c2csc(n2)-c2csc(n2)[C@H]([C@@H](C)[C@@H]2CO2)NC(=O)[C@H](Cc2ccc(O)cc2)NC(=O)c2csc(n2)[C@H]([C@H](O)c2ccccc2)NC(=O)c2nc(sc2C)[C@H](CC(N)=O)NC(=O)c2csc-3n2)n1)C(=O)O` needs its MIC filled in; supply it. 0.5

* * *

- experimental_protocol: Volume of distribution at steady state in Sprague-Dawley rat at 1 mg/kg, iv
- Format: ADME, organism-based
- Parameters: dose 1 mg/kg, route intravenous
- run_conditions: in vivo, read-out: Vdss
readout_type: Vd (L/kg)
Expressed in L/kg, but write only the number.

Entry `Cc1sc2nc1C(=O)N[C@@H]([C@H](O)c1ccccc1)c1nc(cs1)C(=O)N[C@@H](Cc1ccc(O)cc1)C(=O)N1C[C@H](O)[C@H](C)[C@H]1c1nc(cs1)-c1nc(cs1)-c1nc(-c3nc(C(N)=O)cs3)ccc1-c1nc(cs1)C(=O)N[C@H]2CC(N)=O` needs its Vd filled in; supply it. 0.134

* * *

- experimental_protocol: AUC in Sprague-Dawley rat at 1 mg/kg, iv
- Format: ADME, organism-based
- Parameters: dose 1 mg/kg, route intravenous
- run_conditions: plasma
readout_type: AUC

Entry `Cc1sc2nc1C(=O)N[C@@H]([C@H](O)c1ccccc1)c1nc(cs1)C(=O)N[C@@H](Cc1ccc(O)cc1)C(=O)N1C[C@H](O)[C@H](C)[C@H]1c1nc(cs1)-c1nc(cs1)-c1nc(-c3nc(C(N)=O)cs3)ccc1-c1nc(cs1)C(=O)N[C@H]2CC(N)=O` needs its AUC filled in; supply it. 1.35 µM·h

* * *

A collection of molecules and their measured MIC
- Tested on: Staphylococcus aureus
- experimental_protocol: Antibacterial activity against methicillin-resistant Staphylococcus aureus isolate AKH Vienna A4.018 by broth microdilution method
- Assay type: functional

1. Cc1sc2nc1C(=O)N[C@@H]([C@H](O)c1ccccc1)c1nc(cs1)C(=O)N[C@@H](Cc1ccc(O)cc1)C(=O)N[C@@H]([C@@H](C)[C@@H](O)CO)c1nc(cs1)-c1nc(cs1)-c1nc(-c3nc(C(N)=O)cs3)ccc1-c1nc(cs1)C(=O)N[C@H]2CC(N)=O ... > 32 µg/mL
2. C=C(NC(=O)c1csc(-c2ccc3c(n2)-c2csc(n2)-c2csc(n2)[C@H]([C@@H](C)[C@@H]2CO2)NC(=O)[C@H](Cc2ccc(OC(C)=O)cc2)NC(=O)c2csc(n2)[C@H]([C@H](OC(C)=O)c2ccccc2)NC(=O)c2nc(sc2C)[C@H](CC(N)=O)NC(=O)c2csc-3n2)n1)C(=O)NC(=C)C(=O)OC ... > 32 µg/mL

Attention now shifts to the item below.
Entry `C=C(NC(=O)c1csc(-c2ccc3c(n2)-c2csc(n2)-c2csc(n2)[C@H]([C@@H](C)[C@@H]2CO2)NC(=O)[C@H](Cc2ccc(OC)cc2)NC(=O)c2csc(n2)[C@H]([C@H](O)c2ccccc2)NC(=O)c2nc(sc2C)[C@H](CC(N)=O)NC(=O)c2csc-3n2)n1)C(=O)NC(=C)C(=O)OC` needs its MIC filled in; supply it. > 32 µg/mL

Where do these numbers come from? They come from ChEMBL document CHEMBL2163307.
